# Tested system: SpCas9 (Streptococcus pyogenes serotype M1, UniProt Q99ZW2)
# Sequence (Q99ZW2 whole entry): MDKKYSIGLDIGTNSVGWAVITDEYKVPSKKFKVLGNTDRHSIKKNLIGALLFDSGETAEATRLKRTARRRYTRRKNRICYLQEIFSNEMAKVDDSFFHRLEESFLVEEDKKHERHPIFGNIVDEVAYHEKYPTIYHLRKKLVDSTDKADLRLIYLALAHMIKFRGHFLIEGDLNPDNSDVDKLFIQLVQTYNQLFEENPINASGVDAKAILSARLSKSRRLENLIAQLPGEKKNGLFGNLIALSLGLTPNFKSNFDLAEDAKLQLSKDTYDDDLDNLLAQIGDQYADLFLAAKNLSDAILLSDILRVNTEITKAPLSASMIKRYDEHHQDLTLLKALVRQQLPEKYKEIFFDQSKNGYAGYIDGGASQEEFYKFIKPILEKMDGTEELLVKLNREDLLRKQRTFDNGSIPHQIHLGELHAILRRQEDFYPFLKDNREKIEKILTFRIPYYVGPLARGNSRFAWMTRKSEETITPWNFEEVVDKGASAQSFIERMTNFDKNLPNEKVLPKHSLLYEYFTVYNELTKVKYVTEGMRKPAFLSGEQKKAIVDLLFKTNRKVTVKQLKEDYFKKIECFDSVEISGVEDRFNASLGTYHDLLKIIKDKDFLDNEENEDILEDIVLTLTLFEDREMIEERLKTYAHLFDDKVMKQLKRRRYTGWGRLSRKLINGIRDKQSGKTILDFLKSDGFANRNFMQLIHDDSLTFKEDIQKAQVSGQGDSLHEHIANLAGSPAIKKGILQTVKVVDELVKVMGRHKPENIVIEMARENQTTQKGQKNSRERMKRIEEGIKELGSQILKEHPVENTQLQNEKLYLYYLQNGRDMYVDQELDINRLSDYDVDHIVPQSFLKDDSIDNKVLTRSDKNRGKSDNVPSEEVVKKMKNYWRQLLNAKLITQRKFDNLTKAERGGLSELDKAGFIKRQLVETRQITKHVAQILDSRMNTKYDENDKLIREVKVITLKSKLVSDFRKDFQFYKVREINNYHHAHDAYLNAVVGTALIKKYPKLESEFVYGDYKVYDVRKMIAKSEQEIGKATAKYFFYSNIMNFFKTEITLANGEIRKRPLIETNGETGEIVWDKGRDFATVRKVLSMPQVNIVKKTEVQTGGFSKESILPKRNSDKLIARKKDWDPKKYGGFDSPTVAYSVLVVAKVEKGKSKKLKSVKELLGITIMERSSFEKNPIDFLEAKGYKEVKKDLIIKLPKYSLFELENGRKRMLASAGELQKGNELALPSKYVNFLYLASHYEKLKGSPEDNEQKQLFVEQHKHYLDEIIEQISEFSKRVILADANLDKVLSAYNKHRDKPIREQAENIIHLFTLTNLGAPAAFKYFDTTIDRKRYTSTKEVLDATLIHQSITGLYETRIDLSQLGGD
# Assay notes: eGFP disruption assay, SpCas9, U2OS.eGFP.PEST cells
# Format: cell-based
# Measurement conditions: replicate 2; normalized, lower control about 0, upper control about 1
Threshold rule: Normalized Z rep2 greater than or equal to 0.1 is satisfied; below that, not satisfied.

Field: example entries. Status: answers known.
Compound	Assigned category
Cc1nc2ccccc2c(C)c1CC(=O)N1CCN(c2ccc(O)cc2)CC1	satisfied
Cc1occc1-c1nnc2sc(-c3c[nH]c4ccccc34)nn12	satisfied
COc1ccc(OC)c(CNC(=O)c2ccc(Oc3ccnc(-c4cccc(F)c4)n3)cc2)c1	satisfied
Cc1ccccc1OCc1nn2c(C(C)(C)C)nnc2s1	satisfied
O=C(CCS(=O)(=O)c1ccccc1)Nc1nc(-c2ccncc2)cs1	satisfied

[in] Evaluate "CCOC(=O)C1=C(C)NN=C(Nc2cccc(C)c2C)S1" : Normalized Z rep2 at minimum 0.1?
[out] satisfied
